# targetUnderTest: PfCSP full length (Plasmodium falciparum (isolate NF54), UniProt P19597)
# Sequence (P19597 20-375): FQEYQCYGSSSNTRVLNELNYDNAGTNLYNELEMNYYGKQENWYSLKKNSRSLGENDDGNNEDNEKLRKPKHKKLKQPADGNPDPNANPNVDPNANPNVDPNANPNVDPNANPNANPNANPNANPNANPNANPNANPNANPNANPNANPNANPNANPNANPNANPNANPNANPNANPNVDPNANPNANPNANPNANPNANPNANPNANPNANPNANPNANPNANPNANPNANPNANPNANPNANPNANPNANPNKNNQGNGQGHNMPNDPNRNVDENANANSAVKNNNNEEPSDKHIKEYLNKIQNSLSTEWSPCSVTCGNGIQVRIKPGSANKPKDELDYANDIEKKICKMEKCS
# assayProcedure: ELISA AUC
Each record here notes measured binding score.
I'd appreciate a reply containing only the number, no unit.

binder: CL-512023 (antibody, V domains shown, peptides N-terminally acetylated and C-terminally amidated) VH: QVQLMESGGGVVQPGRSLRLSCEASGFTFSNSGMHWVRQAPGKGLEWVAIIWYDGSNRYYVDSVKGRFTISRDNSKNTLYLQMNSLRAEDTAVYYCARDGGNRYGYGWFDSWGQGTLVTVSS VL: QSVLTQPPSVSGAPGQRVTISCTGSSSNIGAGYDVHWYQQLPGTAPKLLIYGNTNRPSGVPDRFSGSKSGTSASLAITGLQAEDEADYYCQSYDSSLGGSRRVFGGGTKLTVL
binding score: 2.59
--
binder: CL-515341 (antibody, V domains shown, peptides N-terminally acetylated and C-terminally amidated) VH: QVYLVESGGGVVQPGKSLRLSCAASGFTFSNYGMHWVRQAPGKGLEWVAIIWHDGSNKFYSDSVRGRFTISRDNSQNTLYLQMNSLSAEDTALYFCAKDIGYSNTWDYFDYWGQGTLVTVSS VL: EIVLTQSPATLSLSPGERATLSCRASQSVNSFLAWYQQKPGQAPRLLIYDASNRATDIPDRFSGSGSGTDFTLTIRSLEPEDFAVYFCQQRSKWFTFGGGTTVEMK
binding score: 2.38
--
binder: CL-531969 (antibody, V domains shown, peptides N-terminally acetylated and C-terminally amidated) VH: QVQLVESGGGVVQPGRSLRLSCAASGFTFSSSGMHWVRQAPGMGLEWVAIIWYDGSNKFYADSVKGRFTISRDNSKNTLYLQMNSLRAEDTAVYYCARAYVSGNYGDNYGMDVWGQGTTVTVSS VL: DIQMTQSPSTLSASVGDRVTITCRASQSISSWLAWFQQKPGKAPKLLIYKASSLESGVPSRFSGSGSGTEFTLTINSLQPDDFATYFCQQYNYYWTFGQGTKVEIK
binding score: 2.5
--
binder: CL-531383 (antibody, V domains shown, peptides N-terminally acetylated and C-terminally amidated) VH: QVQLVESGGGVVQPGRSLRLSCAASGFTFSSFGMHWVRQTPVKGLEWVALIWYDGSHKFYADSVRGRFIISRDNSKNTLFLQMNSLRAEDTAIYYCAKVINYGSGNYYNNYKYTMDVWGQGTTVTVSS VL: DIQMTQSPSTLSASVGDRVTITCRASQSISSWLAWYQQKPGKAPKVLIYKASSLESGVPSRFSGSGSGTEFTLTISSLQPDDFATYYCQQYNTYWTFGQGTKVEIK
binding score: 2.64

-- ask State, in one line, measured binding score of Ky315 (antibody, V domains shown, peptides N-terminally acetylated and C-terminally amidated) VH: QVQLVESGGGVVQPGRSLRLSCAASGFTLSNYGVHWVRQAPGTGLEWVALIWYDGSNKFYADSVKGRFTISRDNSMDIVYLQMNNLRAEDTALYYCVRPGIAAAGSNYYAMDVWGQGTAVTVSS VL: EIVMTQSPATLSMSPGERATLSCRASQSVGSDLAWFQQKPGQAPRLLIYGAFTRATGIPARFSGSGSGSEFTLTISSLQSEDFAVYYCQQYNRWWTFGQGTKVEMK
-- reply 2.7
